# Tgt: Prothrombin (Homo sapiens, UniProt P00734)
Reported Endpoint: Ki (µM)

A = N=C(N)c1cccc(C[C@H](NS(=O)(=O)c2cccc(NC(=O)CCN)c2)C(=O)N2CCC(CCN=C(N)N)CC2)c1
B = N=C(N)NCCC1CCN(C(=O)[C@H](Cc2cccc(C(=N)N)c2)NS(=O)(=O)c2ccc3ccccc3c2)CC1
C = N=C(N)NCCC(=O)Nc1cccc(S(=O)(=O)N[C@@H](Cc2cccc(C(=N)N)c2)C(=O)N2CCC(CCNC(=N)N)CC2)c1
D = CC(C)c1cc(C(C)C)c(S(=O)(=O)N[C@@H](Cc2cccc(C(=N)N)c2)C(=O)N2CCN(C(=N)N)CC2)c(C(C)C)c1
Hey, quick one: sort these by Ki, low to high? // format: requested-order list of labels
B, C, A, D
(B: 0.11 µM, C: 4 µM, A: 6 µM, D: 13 µM)

----------
# Tgt: Coagulation factor X (Homo sapiens, UniProt P00742)
# Sequence (P00742 41-179 limits assumed): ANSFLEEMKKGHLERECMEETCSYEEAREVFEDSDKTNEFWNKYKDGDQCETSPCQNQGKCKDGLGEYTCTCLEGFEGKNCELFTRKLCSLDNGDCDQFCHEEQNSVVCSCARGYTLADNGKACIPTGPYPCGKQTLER
# Sequence (P00742 235-488 limits assumed): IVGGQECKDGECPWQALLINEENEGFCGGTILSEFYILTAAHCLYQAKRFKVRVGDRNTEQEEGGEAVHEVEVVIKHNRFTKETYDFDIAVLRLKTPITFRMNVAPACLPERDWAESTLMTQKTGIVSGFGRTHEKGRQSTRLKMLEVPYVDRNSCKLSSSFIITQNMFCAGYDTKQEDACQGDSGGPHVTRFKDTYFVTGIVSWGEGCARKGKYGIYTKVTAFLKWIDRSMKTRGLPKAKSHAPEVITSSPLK
# Method Description: Inhibition of f10a
Reported Endpoint: Ki (µM)

Would you please look over these solved cases?
N=C(N)NCCC(=O)N1CCN(C(=O)[C@H](Cc2cccc(C(=N)N)c2)NS(=O)(=O)c2ccc3cc4ccccc4cc3c2)CC1
4.6
CC(C)c1cc(C(C)C)c(S(=O)(=O)N[C@@H](Cc2cccc(C(=N)N)c2)C(=O)N2CCN(C(=O)CCN=C(N)N)CC2)c(C(C)C)c1
2.9
CC(C)c1cc(C(C)C)c(S(=O)(=O)N[C@@H](Cc2cccc(C(=N)N)c2)C(=O)N2CCN(C(=O)C3CCNCC3)CC2)c(C(C)C)c1
17

a = N=C(N)NCCC(=O)N1CCN(C(=O)[C@H](Cc2cccc(C(=N)N)c2)NS(=O)(=O)c2ccc3c(c2)C(=O)c2ccccc2C3=O)CC1
b = N=C(N)c1cccc(C[C@H](NS(=O)(=O)c2cccc(NC(=O)CCN)c2)C(=O)N2CCC(CCN=C(N)N)CC2)c1
Between a and b , whose recorded Ki is greater? Your answer should be the label attached to the chosen record.
b
(b: 9.5 µM, a: 2.8 µM)

a = N=C(N)c1cccc(C[C@H](NS(=O)(=O)c2cccc(NC(=O)CCN)c2)C(=O)N2CCC(CCN)CC2)c1
b = CC(C)c1cc(C(C)C)c(S(=O)(=O)N[C@@H](Cc2cccc(C(=N)N)c2)C(=O)N2CCN(C(=O)C3CCN(C(=N)N)CC3)CC2)c(C(C)C)c1
c = N=C(N)NCCC(=O)N1CCN(C(=O)[C@H](Cc2cccc(C(=N)N)c2)NS(=O)(=O)c2ccc3ccccc3c2)CC1
d = N=C(N)NCCNC(=O)C1CCN(C(=O)[C@H](Cc2cccc(C(=N)N)c2)NS(=O)(=O)c2ccc3c(c2)C(=O)c2ccccc2C3=O)CC1
e = N=C(N)c1cccc(C[C@H](NS(=O)(=O)CCc2cccc3ccccc23)C(=O)N2CCN(C(=O)CCN=C(N)N)CC2)c1
Hi! Can you put these in order of Ki, lowest number first? // format: requested-order list of labels
d, b, a, c, e
(d: 4.9 µM, b: 10 µM, a: 21 µM, c: 56 µM, e: 80 µM)

I = CC(C)c1cc(C(C)C)c(S(=O)(=O)N[C@@H](Cc2cccc(C(=N)N)c2)C(=O)N2CCC(C(=O)NCCN)CC2)c(C(C)C)c1
II = N=C(N)c1cccc(C[C@H](NS(=O)(=O)c2cccc(NC(=O)CCN)c2)C(=O)N2CCC(CCCN)CC2)c1
III = CC(C)c1cc(C(C)C)c(S(=O)(=O)NC(Cc2cccc(C(=N)N)c2)C(=O)N2CCN(C(=O)CN=C(N)N)CC2)c(C(C)C)c1 (racemic)
IV = N=C(N)NCCC1CCN(C(=O)[C@H](Cc2cccc(C(=N)N)c2)NS(=O)(=O)c2ccc(C3CCCCC3)cc2)CC1
Hi! Can you put these in order of Ki, lowest number first? // format: requested-order list of labels
IV, I, III, II

1 = CC(C)c1cc(C(C)C)c(S(=O)(=O)N[C@@H](Cc2cccc(C(=N)N)c2)C(=O)N2CCN(C(=O)CCCN=C(N)N)CC2)c(C(C)C)c1
2 = N=C(N)c1cccc(C[C@H](NS(=O)(=O)c2ccc(C3CCCCC3)cc2)C(=O)N2CCNCC2)c1
Between 1 and 2 , whose recorded Ki is greater? Your answer should be the label attached to the chosen record.
1
(1: 2.8 µM, 2: 1.1 µM)

----------
# Tgt: Suppressor of tumorigenicity 14 protein (Homo sapiens, UniProt Q9Y5Y6)
# Sequence (Q9Y5Y6 whole entry): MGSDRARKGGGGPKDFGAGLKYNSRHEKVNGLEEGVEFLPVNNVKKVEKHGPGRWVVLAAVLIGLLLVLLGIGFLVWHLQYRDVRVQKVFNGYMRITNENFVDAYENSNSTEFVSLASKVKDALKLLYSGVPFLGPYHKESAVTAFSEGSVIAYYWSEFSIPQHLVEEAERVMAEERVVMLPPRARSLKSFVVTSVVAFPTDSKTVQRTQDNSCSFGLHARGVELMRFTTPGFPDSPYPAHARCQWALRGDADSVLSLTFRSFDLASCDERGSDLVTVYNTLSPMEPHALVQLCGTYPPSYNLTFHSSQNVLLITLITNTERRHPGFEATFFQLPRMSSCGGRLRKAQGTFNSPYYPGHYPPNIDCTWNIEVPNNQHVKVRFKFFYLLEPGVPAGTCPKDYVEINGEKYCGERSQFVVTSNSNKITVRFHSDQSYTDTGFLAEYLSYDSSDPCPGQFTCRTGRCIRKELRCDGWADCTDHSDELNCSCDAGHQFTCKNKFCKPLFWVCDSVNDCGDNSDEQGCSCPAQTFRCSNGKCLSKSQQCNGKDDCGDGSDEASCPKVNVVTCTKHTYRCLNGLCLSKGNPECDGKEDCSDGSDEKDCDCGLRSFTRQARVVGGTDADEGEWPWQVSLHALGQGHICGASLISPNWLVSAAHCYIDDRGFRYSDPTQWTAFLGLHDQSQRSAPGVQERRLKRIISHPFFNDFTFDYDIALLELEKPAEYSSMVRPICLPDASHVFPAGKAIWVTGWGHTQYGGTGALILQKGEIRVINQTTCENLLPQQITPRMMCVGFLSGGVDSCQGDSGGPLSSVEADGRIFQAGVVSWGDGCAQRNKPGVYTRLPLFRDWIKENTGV
pKi: −log10 of the molar value.
Reported Endpoint: pKi

N=C(N)c1cccc(C[C@H](NS(=O)(=O)c2ccc3c(c2)C(=O)c2ccccc2C3=O)C(=O)N2CCC(C(=O)NCCN)CC2)c1
7.68
CC(C)c1cc(C(C)C)c(S(=O)(=O)N[C@@H](Cc2cccc(C(=N)N)c2)C(=O)N2CCN(C(=O)CCCN=C(N)N)CC2)c(C(C)C)c1
7.21
CCC(C)(C)c1ccc(S(=O)(=O)N[C@@H](Cc2cccc(C(=N)N)c2)C(=O)N2CCN(C(=O)CCN=C(N)N)CC2)cc1
6.70
N=C(N)NCCC(=O)N1CCN(C(=O)[C@H](Cc2cccc(C(=N)N)c2)NS(=O)(=O)c2ccc(-c3ccccc3)cc2)CC1
6.60
N=C(N)c1cccc(C[C@H](NS(=O)(=O)c2ccc(NC(=O)CCN)cc2)C(=O)N2CCC(CCN)CC2)c1
7.55

1 = N=C(N)c1cccc(C[C@H](NS(=O)(=O)c2cccc(NC(=O)CCN)c2)C(=O)N2CCC(CCCN=C(N)N)CC2)c1
2 = CC(C)c1cc(C(C)C)c(S(=O)(=O)NC(Cc2cccc(C(=N)N)c2)C(=O)N2CCN(C(=O)CN=C(N)N)CC2)c(C(C)C)c1 (racemic)
Between 1 and 2 , whose recorded pKi is greater? Your answer should be the label attached to the chosen record.
1

----------
Parameter Ki, tested on Plasminogen (Homo sapiens), listed per item.
Sequence (P00747 97-580 limits assumed): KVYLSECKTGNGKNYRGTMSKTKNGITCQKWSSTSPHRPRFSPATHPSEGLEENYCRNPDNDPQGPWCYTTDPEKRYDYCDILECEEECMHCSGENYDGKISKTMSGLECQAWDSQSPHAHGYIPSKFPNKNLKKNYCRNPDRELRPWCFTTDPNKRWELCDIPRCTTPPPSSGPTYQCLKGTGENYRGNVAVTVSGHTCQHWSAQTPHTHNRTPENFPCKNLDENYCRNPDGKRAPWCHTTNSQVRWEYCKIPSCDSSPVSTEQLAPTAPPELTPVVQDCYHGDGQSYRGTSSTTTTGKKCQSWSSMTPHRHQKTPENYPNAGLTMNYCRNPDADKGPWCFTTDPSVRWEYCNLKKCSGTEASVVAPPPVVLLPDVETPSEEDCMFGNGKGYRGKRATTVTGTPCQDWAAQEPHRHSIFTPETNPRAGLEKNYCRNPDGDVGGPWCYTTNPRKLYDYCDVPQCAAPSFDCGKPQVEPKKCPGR
Sequence (P00747 581-810 limits assumed): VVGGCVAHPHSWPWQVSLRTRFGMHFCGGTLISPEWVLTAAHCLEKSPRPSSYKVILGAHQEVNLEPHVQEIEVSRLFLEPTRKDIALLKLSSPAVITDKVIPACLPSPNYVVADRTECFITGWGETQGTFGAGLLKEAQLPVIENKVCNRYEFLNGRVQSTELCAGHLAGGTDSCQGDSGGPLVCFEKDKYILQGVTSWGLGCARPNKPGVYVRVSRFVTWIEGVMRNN
Reported Endpoint: Ki (µM)

N=C(N)c1cccc(C[C@H](NS(=O)(=O)c2ccc(NC(=O)CCN)cc2)C(=O)N2CCC(CCN)CC2)c1
1.2
CC(C)c1cc(C(C)C)c(S(=O)(=O)N[C@@H](Cc2cccc(C(=N)N)c2)C(=O)N2CCN(C(=O)CCCN=C(N)N)CC2)c(C(C)C)c1
0.88
CC(C)c1cc(C(C)C)c(S(=O)(=O)N[C@@H](Cc2cccc(C(=N)N)c2)C(=O)N2CCNCC2)c(C(C)C)c1
0.8
N=C(N)c1cccc(C[C@H](NS(=O)(=O)c2ccc3ccccc3c2)C(=O)N2CCC(C3CCN(C(=N)N)CC3)CC2)c1
1.4

----------
# Ki values compiled below
# Tgt: UniProtKB P00742
Write the answer as a number in µM, unit excluded.

Would you please look over these solved cases?
CCC(=O)N1CCN(C(=O)[C@H](Cc2cccc(C(=N)N)c2)NS(=O)(=O)c2ccc3c(c2)C(=O)c2ccccc2C3=O)CC1
1.3
CC(C)c1cc(C(C)C)c(S(=O)(=O)N[C@@H](Cc2cccc(C(=N)N)c2)C(=O)N2CCCN(C(=O)C3CCNCC3)CC2)c(C(C)C)c1
5.8
CC(C)c1cc(C(C)C)c(S(=O)(=O)N[C@@H](Cc2cccc(C(=N)N)c2)C(=O)N2CCCN(C(=O)CCN)CC2)c(C(C)C)c1
5.3
N=C(N)c1cccc(C[C@H](NS(=O)(=O)c2cccc(NC(=O)CCCN)c2)C(=O)N2CCC(CCN)CC2)c1
23
N=C(N)c1cccc(C[C@H](NS(=O)(=O)c2ccc3ccccc3c2)C(=O)N2CCC(C3CCNCC3)CC2)c1
24

# value of Ki, UniProtKB P00742, item "N=C(N)c1cccc(C[C@H](NS(=O)(=O)c2ccc(-c3ccccc3)cc2)C(=O)N2CCN(C(=O)C3CCN(C(=N)N)CC3)CC2)c1" = 2.8

# value of Ki, UniProtKB P00742, item "N=C(N)c1cccc(C[C@H](NS(=O)(=O)c2ccc(NC(=O)CCN)cc2)C(=O)N2CCC(CCN)CC2)c1" = 15

# value of Ki, UniProtKB P00742, item "N=C(N)c1cccc(C[C@H](NS(=O)(=O)c2cccc(NC(=O)CN)c2)C(=O)N2CCC(CCN)CC2)c1" = 35

# value of Ki, UniProtKB P00742, item "CC(C)c1cc(C(C)C)c(S(=O)(=O)N[C@@H](Cc2cccc(C(=N)N)c2)C(=O)N2CCN(C(=O)CCN)CC2)c(C(C)C)c1" = 15
